List of pEC50 values.
ASSAY SYSTEM: T1, human serum albumin (HSA) (human, UniProt P02768 25-609, biotinylated)
T1 construct: also called biotinylated HSA
EXPERIMENT DESCRIPTION: competition SPA on biotinylated HSA, 125I acylated GLP-1 tracer;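 note: streptavidin SPA beads carrying biotinylated HSA, competition incubated 20 h at room temperature, plates then read on a TopCount counter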
pEC50: −log10 of the molar value. Starred links: 1 amine or outer side, 2 acyl side, 3 side chain; linkers in the order of their positions; H or OH if unused. Non-standard residues stand in square brackets, D forms with d. Groups on a side chain read outwards from the residue. No end group written: not given here. *: point of attachment. C18 diacid = O=C(O)CCCCCCCCCCCCCCCCC(=O)*; d(βAsp) = O=C(O)[C@@H](CC(=O)[*:2])N[*:1]; 2Nal = N[C@@H](Cc1ccc2ccccc2c1)C(=O)O; AEEA = NCCOCCOCC(=O)O; Aib = CC(C)(N)C(=O)O; Inp = O=C(O)C1CCNCC1

BINDER	pEC50
H[Aib]EGT[2Nal]TSDVSSYK([AEEA-AEEA-d(βAsp)-Inp-C18 diacid])EGQAAREFIEWLVKGRG-NH2	6.52 to 6.82
HAEGTFTSDVSSYKEEQAAREFIEWLVKGRP (Aib8; Lys20 N-epsilon carries the acyl side chain printed in the name; C-terminal amide)	7.00 to 9.00
H[Aib]EGTFTSDVSSYK([AEEA-AEEA-d(βAsp)-Inp-C18 diacid])EGQAARE[2Nal]IEWLVKGRG-NH2	5.70 to 6.10
H[Aib]EGTFTSDVSSYLEEQAAREFIAKLVRGRG (not fully specified (residue 25); printed as N-epsilon31-(2-{2-[2-(2-{2-[2-((S)-3-Carboxy-3-{[1-(19-carboxy-nonadecanoyl)piperidine-4-carbonyl]amino}propionylamino)ethoxy]ethoxy}acetylamino)ethoxy]ethoxy}acetyl)[Aib8,Glu22,Arg26,Lys31,Arg34]GLP-1-(7-37))	6.52 to 6.82
H[Aib]EGTFTSDVSSYLEEQAAREFIKWLVKGRG (not fully specified (residue 24); printed as N-epsilon30{2-[2-(2-{2-[2-((S)-3-carboxy-3-{[1-(19-carboxynonadecanoyl)piperidine-4-carbonyl]amino}propionylamino)ethoxy]ethoxy}acetylamino)ethoxy]ethoxy}acetyl [Aib8,Glu22,Arg26,Lys30]GLP-1-(7-37))	6.52 to 6.82
